TEST DETAILS: Phase I/IIa clinical PK of oral psilocin-d10, plasma, noncompartmental analysis (Cohorts 1-6)
Type: in vivo, human
EXPERIMENTAL CONDITIONS: human, plasma, po, 3 mg, 3 mg oral, Cohort 2 NHV, Day 1; read-out: AUC0-24 Mean (SD)
READOUT TYPE: AUC(0-t)
Write the numeric value and follow it with the unit.

Input: Supply reported AUC(0-t) belonging to this compound: [2H]C([2H])([2H])N(C([2H])([2H])[2H])C([2H])([2H])C([2H])([2H])c1c[nH]c2cccc(O)c12
Output: 34.5 ng·h/mL
